# SYSTEM NAME: MDM2 protein (Homo sapiens, UniProt Q00987)
# Construct: purchased Protintech (so in the source)
# Sequence (Q00987 whole entry): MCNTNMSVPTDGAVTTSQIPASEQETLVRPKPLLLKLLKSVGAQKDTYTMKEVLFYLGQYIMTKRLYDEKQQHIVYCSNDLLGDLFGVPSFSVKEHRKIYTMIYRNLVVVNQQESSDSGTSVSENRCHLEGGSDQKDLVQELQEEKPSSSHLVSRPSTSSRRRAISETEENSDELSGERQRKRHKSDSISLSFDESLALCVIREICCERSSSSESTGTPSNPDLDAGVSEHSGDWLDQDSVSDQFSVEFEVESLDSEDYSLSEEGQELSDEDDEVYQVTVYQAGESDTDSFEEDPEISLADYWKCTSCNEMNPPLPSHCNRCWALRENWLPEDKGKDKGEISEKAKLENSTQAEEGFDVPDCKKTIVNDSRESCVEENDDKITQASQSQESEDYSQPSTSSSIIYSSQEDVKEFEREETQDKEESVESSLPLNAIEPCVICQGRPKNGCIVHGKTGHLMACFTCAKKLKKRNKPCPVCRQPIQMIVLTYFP
# PROTOCOL TEXT: Surface plasmon resonance (SPR) binding assay
# ASSAY CONTEXT: printed in Figure 7
OBSERVED PROPERTY: Kd (nM)

• CCCCCCNC(=O)[C@H](C)CC(=O)C[C@@H](C)[C@H]1C[C@H](O)[C@@]2(C)C3=C(C(=O)C[C@]12C)[C@@]1(C)CCC(=O)C(C)(C)[C@@H]1C[C@@H]3O [Compound A2] = 1650

---

# reported melting point; entries follow
OBSERVED PROPERTY: melting point

- C[C@H](CC(=O)C[C@@H](C)[C@H]1C[C@H](O)[C@@]2(C)C3=C(C(=O)C[C@]12C)[C@@]1(C)CCC(=O)C(C)(C)[C@@H]1C[C@@H]3O)C(=O)NCc1cc(Cl)cc(Cl)c1 [Compound A8]: 182.6 to 183.8 °C
- C[C@H](CC(=O)C[C@@H](C)[C@H]1C[C@H](O)[C@@]2(C)C3=C(C(=O)C[C@]12C)[C@@]1(C)CCC(=O)C(C)(C)[C@@H]1C[C@@H]3O)C(=O)N1CCN(C)CC1 [Compound A13]: 173.2 to 174.9 °C
- C[C@H](CC(=O)C[C@@H](C)[C@H]1C[C@H](O)[C@@]2(C)C3=C(C(=O)C[C@]12C)[C@@]1(C)CCC(=O)C(C)(C)[C@@H]1C[C@@H]3O)C(=O)Nc1ccc(Cl)cc1 [Compound A4]: 184.9 to 185.3 °C
- Cc1ccc(CCNC(=O)[C@H](C)CC(=O)C[C@@H](C)[C@H]2C[C@H](O)[C@@]3(C)C4=C(C(=O)C[C@]23C)[C@@]2(C)CCC(=O)C(C)(C)[C@@H]2C[C@@H]4O)cc1 [Compound A10]: 221.9 to 223 °C
- C[C@H](CC(=O)C[C@@H](C)[C@H]1C[C@H](O)[C@@]2(C)C3=C(C(=O)C[C@]12C)[C@@]1(C)CCC(=O)C(C)(C)[C@@H]1C[C@@H]3O)C(=O)NCCc1ccc(Cl)cc1 [Compound A12]: 195.4 to 196.1 °C
- C[C@H](CC(=O)C[C@@H](C)[C@H]1C[C@H](O)[C@@]2(C)C3=C(C(=O)C[C@]12C)[C@@]1(C)CCC(=O)C(C)(C)[C@@H]1C[C@@H]3O)C(=O)N1CCN(c2ccccc2)CC1 [Compound A15]: 229.4 to 229.9 °C
- Cc1ccc(CNC(=O)[C@H](C)CC(=O)C[C@@H](C)[C@H]2C[C@H](O)[C@@]3(C)C4=C(C(=O)C[C@]23C)[C@@]2(C)CCC(=O)C(C)(C)[C@@H]2C[C@@H]4O)cc1 [Compound A5]: 208.7 to 209 °C
- CCCCCCNC(=O)[C@H](C)CC(=O)C[C@@H](C)[C@H]1C[C@H](O)[C@@]2(C)C3=C(C(=O)C[C@]12C)[C@@]1(C)CCC(=O)C(C)(C)[C@@H]1C[C@@H]3O [Compound A2]: 129.9 to 131.3 °C
- CCN1CCN(C(=O)[C@H](C)CC(=O)C[C@@H](C)[C@H]2C[C@H](O)[C@@]3(C)C4=C(C(=O)C[C@]23C)[C@@]2(C)CCC(=O)C(C)(C)[C@@H]2C[C@@H]4O)CC1 [Compound A14]: 198.5 to 199.4 °C
- C[C@H](CC(=O)C[C@@H](C)[C@H]1C[C@H](O)[C@@]2(C)C3=C(C(=O)C[C@]12C)[C@@]1(C)CCC(=O)C(C)(C)[C@@H]1C[C@@H]3O)C(=O)NCc1ccc(Cl)cc1 [Compound A7]: 188.6 to 189.4 °C
- C[C@H](CC(=O)C[C@@H](C)[C@H]1C[C@H](O)[C@@]2(C)C3=C(C(=O)C[C@]12C)[C@@]1(C)CCC(=O)C(C)(C)[C@@H]1C[C@@H]3O)C(=O)NCc1ccc(F)cc1 [Compound A6]: 178.4 to 179.3 °C
- C[C@H](CC(=O)C[C@@H](C)[C@H]1C[C@H](O)[C@@]2(C)C3=C(C(=O)C[C@]12C)[C@@]1(C)CCC(=O)C(C)(C)[C@@H]1C[C@@H]3O)C(=O)NC1Cc2ccccc2C1 [Compound A9]: 199.7 to 200.3 °C
- CCCCNC(=O)[C@H](C)CC(=O)C[C@@H](C)[C@H]1C[C@H](O)[C@@]2(C)C3=C(C(=O)C[C@]12C)[C@@]1(C)CCC(=O)C(C)(C)[C@@H]1C[C@@H]3O [Compound A1]: 120.7 to 121.5 °C
- C[C@H](CC(=O)C[C@@H](C)[C@H]1C[C@H](O)[C@@]2(C)C3=C(C(=O)C[C@]12C)[C@@]1(C)CCC(=O)C(C)(C)[C@@H]1C[C@@H]3O)C(=O)NCCc1ccc(F)cc1 [Compound A11]: 188.1 to 189 °C
- Cc1ccc(NC(=O)[C@H](C)CC(=O)C[C@@H](C)[C@H]2C[C@H](O)[C@@]3(C)C4=C(C(=O)C[C@]23C)[C@@]2(C)CCC(=O)C(C)(C)[C@@H]2C[C@@H]4O)cc1 [Compound A3]: 174.3 to 175.5 °C
